target: human FLAP (Homo sapiens (Human), UniProt P20292); test: FLAP binding assay (HTRF format); details: human FLAP wild type, HTRF format; average of two plates, duplicates
Sequence (P20292 whole entry): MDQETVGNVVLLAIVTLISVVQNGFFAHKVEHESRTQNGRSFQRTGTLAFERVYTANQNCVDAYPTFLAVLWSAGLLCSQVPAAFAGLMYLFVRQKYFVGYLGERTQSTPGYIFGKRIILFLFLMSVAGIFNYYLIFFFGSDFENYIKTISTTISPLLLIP
Structures can show the parent of a compound that is named as a salt.
REPORTED_PROPERTY: log10(Ki) (log10 of the value in nM)

Nc1cnc(-c2ccc(-c3ccccc3S(=O)(=O)N3CCC(CCO)CC3)cc2F)cn1    0.00
Nc1cnc(-c2ccc(-c3ccccc3NS(=O)(=O)C3CC3)cc2F)cn1    1.52
O=S(=O)(c1ccccc1-c1ccc(-c2cnc3[nH]ccc3c2)c(F)c1)C1CC1    0.48
CC(C)(C)NS(=O)(=O)c1ccccc1-c1ccc(-c2cnc3c(c2)OCCN3)c(F)c1    0.00
Nc1ncc(-c2ccc(-c3ccccc3S(N)(=O)=O)cc2F)cn1 [Example 302, trifluoroacetic acid salt]    3.40
CC(C)(CO)NS(=O)(=O)c1ccccc1-c1ccc(-c2cnc(N)cn2)c(F)c1    0.00
CN([C@@H]1CCCNC1)S(=O)(=O)c1ccccc1-c1ccc(-c2cnc(N)nc2)c(F)c1    2.19
CCNS(=O)(=O)c1ccccc1-c1ccc(-c2cnc(N)nc2)c(F)c1 [Example 295, trifluoroacetic acid salt]    1.40
